Tested on: PPARg:RXRa 30nM:10nM, anti-RXR (NR concentration 30 nM, RXRa partner concentration 10 nM)
assayProcedure: PBM binding z-score (relative to random genomic background probes); higher = stronger binding; sequences stand for … in GC…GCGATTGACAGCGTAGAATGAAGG
Category key, based on recorded PBM binding z-score: class A = under 0.1, class B = from 0.1 up to 3, class C = 3 and over

>>> qualitativelabel("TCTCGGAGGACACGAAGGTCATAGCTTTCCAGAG")
"class B"

Now take the following sequence into account.
Bin? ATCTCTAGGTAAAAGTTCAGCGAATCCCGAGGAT
class C

---

System: PPARa:RXRa (NR concentration 270 nM, RXRa partner concentration 90 nM)
assayProcedure: PBM binding z-score (relative to random genomic background probes); higher = stronger binding; sequences stand for … in GC…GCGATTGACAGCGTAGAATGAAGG
Assign class by PBM binding z-score: not lower than 4 means 1; lower than 4 means 0.

See these solved cases before continuing.
>>> qualitativelabel("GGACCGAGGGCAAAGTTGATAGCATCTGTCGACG")
0
>>> qualitativelabel("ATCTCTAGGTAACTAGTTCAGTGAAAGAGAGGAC")
0
>>> qualitativelabel("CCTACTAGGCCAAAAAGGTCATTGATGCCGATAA")
1

Check the entry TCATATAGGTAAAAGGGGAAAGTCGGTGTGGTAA : does PBM binding z-score equal or exceed 4?
0

Would you say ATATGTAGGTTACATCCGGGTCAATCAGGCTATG shows PBM binding z-score at minimum 4?
1

Is it the case that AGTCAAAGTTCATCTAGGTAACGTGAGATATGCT has PBM binding z-score reaching or exceeding 4?
1

Check if PBM binding z-score >= 4 (inclusive). Item: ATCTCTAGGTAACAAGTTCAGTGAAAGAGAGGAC
0

PBM binding z-score >= 4 for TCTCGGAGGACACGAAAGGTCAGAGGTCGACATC ?
1

Please indicate if the recorded PBM binding z-score for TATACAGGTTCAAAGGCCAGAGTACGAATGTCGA meets or exceeds 4.
0

Does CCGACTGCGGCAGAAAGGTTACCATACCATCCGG have a reported PBM binding z-score of at least 4?
0

Does the sequence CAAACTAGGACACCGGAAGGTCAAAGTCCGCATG have recorded PBM binding z-score that is 4 or more?
1

Would you say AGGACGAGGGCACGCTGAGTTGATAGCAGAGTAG shows PBM binding z-score at minimum 4?
0

# bool: PBM binding z-score of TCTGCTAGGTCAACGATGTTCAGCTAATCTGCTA >= 4
0

Kindly determine if PBM binding z-score recorded for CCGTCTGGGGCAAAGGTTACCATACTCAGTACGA is above or exactly 4.
1

Hello, I need to know if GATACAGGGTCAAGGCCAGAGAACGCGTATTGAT has measured PBM binding z-score not below 4. Thanks!
1

I'd appreciate it if you could say whether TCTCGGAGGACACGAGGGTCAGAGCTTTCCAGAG has PBM binding z-score at least equal to 4.
0

Test whether the sequence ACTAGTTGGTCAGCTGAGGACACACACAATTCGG records PBM binding z-score of 4 or higher.
0

Determine whether measured PBM binding z-score meets or exceeds 4 for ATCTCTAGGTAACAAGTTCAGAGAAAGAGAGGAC
0

Form field: PBM binding z-score at least 4? Entry: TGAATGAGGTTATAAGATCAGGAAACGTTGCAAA
0

---

System: PPARa:RXRa (NR concentration 270 nM, RXRa partner concentration 90 nM)
assayProcedure: PBM binding z-score (relative to random genomic background probes); higher = stronger binding; sequences stand for … in GC…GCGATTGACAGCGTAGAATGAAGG
Rule: Criterion met for PBM binding z-score not less than 1, Criterion not met for anything less.

As a guide, the following entries are already answered.
>>> qualitativelabel("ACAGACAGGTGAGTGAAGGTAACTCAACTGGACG")
"Criterion not met"
>>> qualitativelabel("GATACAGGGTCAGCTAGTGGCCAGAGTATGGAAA")
"Criterion met"
>>> qualitativelabel("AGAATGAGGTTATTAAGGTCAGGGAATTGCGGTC")
"Criterion met"
>>> qualitativelabel("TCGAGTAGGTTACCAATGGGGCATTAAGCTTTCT")
"Criterion not met"

// inclusive: PBM binding z-score at least 1? input: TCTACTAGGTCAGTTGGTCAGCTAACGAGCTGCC
Criterion met

Tell me whether PBM binding z-score is at least 1 here: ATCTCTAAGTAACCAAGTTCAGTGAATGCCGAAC
Criterion not met

---

Readings of PBM binding z-score for the listed sequences
System: PXR homodimer (NR concentration 270 nM)
assayProcedure: PBM binding z-score (relative to random genomic background probes); higher = stronger binding; sequences stand for … in GC…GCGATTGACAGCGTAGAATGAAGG
Output spec: single numeric token, no unit.

>>> numericresult("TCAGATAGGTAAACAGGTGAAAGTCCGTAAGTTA")
0.401
>>> numericresult("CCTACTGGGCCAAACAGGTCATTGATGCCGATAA")
0.801
>>> numericresult("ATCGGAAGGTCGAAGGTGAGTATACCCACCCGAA")
0.401
>>> numericresult("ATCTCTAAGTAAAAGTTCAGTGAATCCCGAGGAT")
1.61
>>> numericresult("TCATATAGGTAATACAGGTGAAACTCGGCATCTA")
0.269

Let's switch to this sequence now.
Consider the sequence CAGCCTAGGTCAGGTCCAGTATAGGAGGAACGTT and give its measured PBM binding z-score.
-0.567

---

Test system: RXRa DBDmut IVT, anti-RXR (DBD mutation: RXRa K156A/R161A, NR concentration 90 nM)
assayProcedure: PBM binding z-score (relative to random genomic background probes); higher = stronger binding; sequences stand for … in GC…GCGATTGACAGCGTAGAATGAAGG
readout: PBM binding z-score

Known results for sequences:
>>> result("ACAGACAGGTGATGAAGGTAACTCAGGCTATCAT")
-0.295
>>> result("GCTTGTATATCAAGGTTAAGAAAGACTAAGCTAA")
0.464
>>> result("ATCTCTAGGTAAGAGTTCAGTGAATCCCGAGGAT")
1.71
>>> result("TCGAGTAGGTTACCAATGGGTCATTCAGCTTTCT")
0.573

So what's the measured PBM binding z-score for this one? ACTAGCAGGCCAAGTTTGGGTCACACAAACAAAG
-0.304

Recorded PBM binding z-score for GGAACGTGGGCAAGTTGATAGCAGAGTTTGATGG , please?
0.175

Value lookup for PBM binding z-score; key = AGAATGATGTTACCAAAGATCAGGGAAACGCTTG
-0.312

I am curious: what PBM binding z-score value has been reported for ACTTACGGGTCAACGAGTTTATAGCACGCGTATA ?
3.3

---

Tested on: RARg homodimer (NR concentration 270 nM)
assayProcedure: PBM binding z-score (relative to random genomic background probes); higher = stronger binding; sequences stand for … in GC…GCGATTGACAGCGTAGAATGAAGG
readout: PBM binding z-score
Lab note: record just the number, no unit beside it.

// below: answered sequences
>>> numericresult("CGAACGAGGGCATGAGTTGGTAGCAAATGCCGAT")
1.29
>>> numericresult("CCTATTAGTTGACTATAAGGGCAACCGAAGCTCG")
0.934
>>> numericresult("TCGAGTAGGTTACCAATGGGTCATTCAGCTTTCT")
1.68
>>> numericresult("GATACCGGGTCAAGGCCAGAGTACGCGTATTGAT")
3.93
>>> numericresult("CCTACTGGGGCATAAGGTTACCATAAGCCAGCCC")
1.29

Query (sequence): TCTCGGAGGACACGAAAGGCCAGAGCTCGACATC ; field requested: PBM binding z-score
1.9

Name the reported PBM binding z-score value associated with the sequence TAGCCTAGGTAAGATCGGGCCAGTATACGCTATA
-0.321

PBM binding z-score lookup needed for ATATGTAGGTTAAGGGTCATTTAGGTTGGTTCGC , thanks.
3.29

---

Test system: LXRa:RXRa (NR concentration 270 nM, RXRa partner concentration 90 nM)
assayProcedure: PBM binding z-score (relative to random genomic background probes); higher = stronger binding; sequences stand for … in GC…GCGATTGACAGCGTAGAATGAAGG
PBM binding z-score below 1 gives not satisfied; PBM binding z-score at or above it gives satisfied.

Some solved cases for reference:
>>> qualitativelabel("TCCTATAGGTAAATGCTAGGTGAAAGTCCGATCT")
"not satisfied"
>>> qualitativelabel("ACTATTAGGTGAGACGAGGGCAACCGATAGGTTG")
"not satisfied"
>>> qualitativelabel("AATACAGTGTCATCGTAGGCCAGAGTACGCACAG")
"satisfied"

Tell me whether PBM binding z-score is at least 1 here: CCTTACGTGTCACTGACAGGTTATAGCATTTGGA
satisfied

Could you tell me if the measured PBM binding z-score of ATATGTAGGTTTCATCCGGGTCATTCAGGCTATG reaches 1 or more?
satisfied

API: above_or_equal(metric=PBM binding z-score, cutoff=1) for item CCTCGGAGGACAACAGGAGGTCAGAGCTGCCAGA
satisfied

Is it the case that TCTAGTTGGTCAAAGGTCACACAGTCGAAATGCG has PBM binding z-score reaching or exceeding 1?
satisfied

State whether the measured PBM binding z-score reaches 1, counting equality as reaching it, for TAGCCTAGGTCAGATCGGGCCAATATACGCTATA
satisfied

Hi team, for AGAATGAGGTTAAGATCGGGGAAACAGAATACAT , is the recorded PBM binding z-score at or above 1?
satisfied

Test whether the sequence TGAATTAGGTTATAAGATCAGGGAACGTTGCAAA records PBM binding z-score of 1 or higher.
not satisfied

Answer whether PBM binding z-score of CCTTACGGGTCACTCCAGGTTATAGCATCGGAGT is greater than or equal to 1.
satisfied

Answer whether PBM binding z-score of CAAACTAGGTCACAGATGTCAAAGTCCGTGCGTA is greater than or equal to 1.
satisfied

Check this sequence for PBM binding z-score at or above 1: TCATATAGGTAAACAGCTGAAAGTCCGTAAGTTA
not satisfied

Quick check: does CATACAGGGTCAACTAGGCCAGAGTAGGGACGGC have PBM binding z-score greater than or equal to 1?
satisfied

Test whether the sequence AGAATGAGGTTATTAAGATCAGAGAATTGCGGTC records PBM binding z-score of 1 or higher.
satisfied

// provenance: the supplement of paper PMC6555819
